Source listed as ChEMBL document CHEMBL1143609.

Each entry below carries its reported IC50.
Test system: HepG2
measurementDescription: Inhibitory concentration against HepG2 cell line
Format: functional, cell-based
appliedConditions: Homo sapiens

| compound | measuredTarget | IC50 |
| --- | --- | --- |
| COc1cccc2c(=O)c3c(O)cc4c(c3oc12)[C@@H]1OC[C@]2(CO2)[C@@H]1O4 | HepG2 | 13.1 µM |
| COc1cccc2c(=O)c3c(O)cc4c(c3oc12)[C@@H]1OC[C@](O)(CO)[C@@H]1O4 | HepG2 | > 30 µM |
| COc1cccc2c(=O)c3c(O)cc4c(c3oc12)C[C@H]([C@@](C)(O)CO)O4 | HepG2 | > 30 µM |
| COc1cccc2c(=O)c3c(O)c4c(cc3oc12)O[C@@H]1[C@H]4OC[C@]1(C)O | HepG2 | > 30 µM |
| C=C1CO[C@H]2c3c(cc(O)c4c(=O)c5cccc(OC)c5oc34)O[C@@H]12 | HepG2 | > 30 µM |
| COc1cccc2c(=O)c3c(O)cc4c(c3oc12)C[C@H]([C@](C)(O)CO)O4 | HepG2 | > 30 µM |
| COc1cccc2c(=O)c3c(O)cc4c(c3oc12)[C@@H]1OC[C@](O)(CCl)[C@@H]1O4 | HepG2 | > 30 µM |
| COc1cc2c(c3oc4c(O)cccc4c(=O)c13)C[C@H]([C@@]1(C)CO1)O2 [PSOROSPERMIN] | HepG2 | 0.38 µM |
| COc1cccc2c(=O)c3c(O)c4c(cc3oc12)O[C@@H]1[C@H]4OC[C@@]1(C)O | HepG2 | > 30 µM |
